Tested system: CCR2 (Homo sapiens, UniProt P41597)
Construct: Membranes were prepared from THP-1 cells; endogenous in cells
Sequence (P41597 whole entry): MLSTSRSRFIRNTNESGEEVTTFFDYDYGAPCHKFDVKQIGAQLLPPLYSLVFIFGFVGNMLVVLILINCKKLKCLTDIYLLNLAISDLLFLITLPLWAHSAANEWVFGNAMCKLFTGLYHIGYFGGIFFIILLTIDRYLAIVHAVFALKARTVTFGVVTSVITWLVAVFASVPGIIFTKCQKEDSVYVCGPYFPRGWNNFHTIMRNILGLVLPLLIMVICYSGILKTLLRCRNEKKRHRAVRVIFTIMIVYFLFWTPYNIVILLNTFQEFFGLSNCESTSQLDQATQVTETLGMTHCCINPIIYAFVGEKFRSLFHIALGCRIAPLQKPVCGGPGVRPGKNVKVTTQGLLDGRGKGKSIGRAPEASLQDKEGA
Assay protocol: CCR2 receptor membrane binding assay ([125I]MCP-1, THP-1 cell membranes, SPA beads)
Test context: THP-1 membranes, [125I]MCP-1, bound radioactivity determined after 8 h; read-out: hKi
Binary call on Ki with cut-off 0.5 µM: strictly below means Criterion met, and equality or higher means Criterion not met.

Query: # check: Ki < 0.5 µM for Cc1c(C(=O)N2CCC(NC3CCOCC3)CC2)ncnc1N1CCc2ccc(C(F)(F)F)cc2C1 [Example 69r]
Reply: Criterion met

Query: Record: Cc1c(C(=O)N2CCC(N3CCC(N(C)S(C)(=O)=O)CC3)CC2)ncnc1N1CCC(c2ccccc2C(F)(F)F)CC1
Reply: Criterion not met

Query: Input COC1COCCC1NC1CCN(C(=O)c2ncnc(N3CCc4ccc(C(F)(F)F)cc4C3)c2C)CC1 (stereo not drawn)
Reply: Criterion met

Query: Also COC1COCCC1NC1CCN(C(=O)c2ncnc(N3CCC4(CC3)CC(=O)c3cc(F)ccc3O4)c2C)CC1 (stereo not drawn) [Example 62g] ?
Reply: Criterion not met

Query: Also COC1COCCC1NC1CCN(C(=O)c2ncnc(N3CCC(c4cccc(C(F)(F)F)c4)CC3)c2C)CC1 (stereo not drawn) , if possible.
Reply: Criterion met

Query: Same again, this time with COC1COCCC1NC1CCN(C(=O)c2ncnc(N3CCC4(C=Cc5ccccc54)CC3)c2C)CC1 (stereo not drawn)
Reply: Criterion met

Query: How about this molecule: COC1COCCC1NC1CCN(C(=O)c2ncnc(N3CCCC(c4ccc(C)cc4)C3)c2C)CC1 (stereo not drawn)
Reply: Criterion not met

Query: Record: Cc1c(C(=O)N2CCC(C(N)=O)(N3CCCCC3)CC2)ncnc1N1CCc2ccc(C(F)(F)F)cc2C1
Reply: Criterion not met

Query: Proceed to Cc1c(C(=O)N2CCC(N3CCC(N(C)S(C)(=O)=O)CC3)CC2)ncnc1N1CCc2ccc(C(F)(F)F)cc2C1
Reply: Criterion met

Query: Input CO[C@@H]1COCC[C@@H]1NC1CCN(C(=O)c2ncnc(N3CCc4ccc(Br)cc4C3)c2C)CC1 [Example 69y]
Reply: Criterion met

Query: # repeat for COC1COCCC1NC1CCN(C(=O)c2ncnc(N3CCC4CC4(c4ccc(Br)cc4)C3)c2C)CC1 (stereo not drawn) [Example 62o]
Reply: Criterion not met

Query: Thanks! And COC1COCCC1NC1CCN(C(=O)c2ncnc(N3CCn4c(-c5ccccc5)cnc4C3)c2C)CC1 (stereo not drawn) [Example 62s] ?
Reply: Criterion not met

Query: Consider next the molecule COC1COCCC1NC1CCN(C(=O)c2ncnc(N3CCC4(CCc5cc(Br)ccc5O4)CC3)c2C)CC1 (stereo not drawn) [Example 62ab] in the same way.
Reply: Criterion met

Query: Please answer likewise for COC1COCCC1NC1CCN(C(=O)c2ncnc(N3CCc4ncc(Br)cc4C3)c2C)CC1 (stereo not drawn)
Reply: Criterion met

Query: Cool, now CO[C@@H]1COCC[C@@H]1NC1CCN(C(=O)c2nc(C3CC3)nc(N3CCc4ccc(C(F)(F)F)cc4C3)c2C)CC1 [Example 69x]
Reply: Criterion met

Query: Can you handle COc1ccc(C2CCN(c3ncnc(C(=O)N4CCC(NC5CCOCC5OC)CC4)c3C)CC2)cc1 (stereo not drawn) next?
Reply: Criterion not met

Query: COC1COCCC1NC1CCN(C(=O)c2ncnc(N3CCN(c4ccc(Cl)c(C(F)(F)F)c4)CC3)c2C)CC1 (stereo not drawn) [Example 62w] , same question.
Reply: Criterion met

Query: And then CO[C@@H]1COCC[C@@H]1NC1CCN(C(=O)c2ncnc(N3CCc4ccc(F)cc4C3)c2C)CC1 [Example 69h] , what is it?
Reply: Criterion met

Query: Cool, now COC1COCCC1NC1CCN(C(=O)c2ncnc(N3CCC(c4ccc(Cl)cc4)CC3)c2C)CC1 (stereo not drawn)
Reply: Criterion met

Query: Param item: CO[C@@H]1COCC[C@@H]1NC1CCN(C(=O)c2ncnc(N3CCc4ccc(C(F)(F)F)cc4C3)c2C)CC1
Reply: Criterion met

Query: And what about the molecule Cc1c(C(=O)N2CCC(N(C)C)CC2)ncnc1N1CCc2ccc(C(F)(F)F)cc2C1 ?
Reply: Criterion not met

Query: Also, COc1c(C(=O)N2CCC(N3CCC(N(C)S(C)(=O)=O)CC3)CC2)ncnc1N1CCc2ccc(OC(F)(F)F)cc2C1 please.
Reply: Criterion met

Query: Try COC1COCCC1NC1CCN(C(=O)c2ncnc(N3CCC4(CC3)OCc3ccccc34)c2C)CC1 (stereo not drawn) next.
Reply: Criterion not met

Query: Queued: Cc1c(C(=O)N2CCN(C(C)C)CC2)ncnc1N1CCc2ccc(C(F)(F)F)cc2C1
Reply: Criterion not met

Query: What do you get for COc1c(C(=O)N2CCC(N3CCC(N(C)S(C)(=O)=O)CC3)CC2)ncnc1N1CCc2ccc(C(F)(F)F)cc2C1 ?
Reply: Criterion met

Query: Another molecule: COC1COCCC1NC1CCN(C(=O)c2ncnc(N3CCC(c4ccc(C(F)(F)F)cc4)CC3)c2C)CC1 (stereo not drawn)
Reply: Criterion met

Query: Repeat with COC1COCCC1NC1CCN(C(=O)c2ncnc(N3CCC(c4cccc(C)c4)CC3)c2C)CC1 (stereo not drawn)
Reply: Criterion not met

Query: // query: COC1COCCC1NC1CCN(C(=O)c2ncnc(N3CCc4ccc(C#N)cc4C3)c2C)CC1 (stereo not drawn)
Reply: Criterion met

Query: How about COC1COCCC1NC1CCN(C(=O)c2ncnc(N3CCN(c4ccccc4C)CC3)c2C)CC1 (stereo not drawn) [Example 62m] ?
Reply: Criterion met

Query: Then COC1COCCC1NC1CCN(C(=O)c2ncnc(N3Cc4ccc(C(F)(F)F)cc4C3)c2C)CC1 (stereo not drawn) ?
Reply: Criterion met
